These data points were gathered from patent US20240199613A1.

# testedSystem: human activated kallikrein enzyme (Homo sapiens)
# Sequence (P03952 391-638 limits assumed): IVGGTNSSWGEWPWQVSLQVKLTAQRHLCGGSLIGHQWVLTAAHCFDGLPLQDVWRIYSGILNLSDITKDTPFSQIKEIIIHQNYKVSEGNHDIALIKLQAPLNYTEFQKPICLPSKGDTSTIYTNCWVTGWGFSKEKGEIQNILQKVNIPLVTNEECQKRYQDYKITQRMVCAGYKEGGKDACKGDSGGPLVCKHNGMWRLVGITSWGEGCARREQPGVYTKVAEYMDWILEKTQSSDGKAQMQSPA
# Sequence (P03952 20-390 partner limits assumed): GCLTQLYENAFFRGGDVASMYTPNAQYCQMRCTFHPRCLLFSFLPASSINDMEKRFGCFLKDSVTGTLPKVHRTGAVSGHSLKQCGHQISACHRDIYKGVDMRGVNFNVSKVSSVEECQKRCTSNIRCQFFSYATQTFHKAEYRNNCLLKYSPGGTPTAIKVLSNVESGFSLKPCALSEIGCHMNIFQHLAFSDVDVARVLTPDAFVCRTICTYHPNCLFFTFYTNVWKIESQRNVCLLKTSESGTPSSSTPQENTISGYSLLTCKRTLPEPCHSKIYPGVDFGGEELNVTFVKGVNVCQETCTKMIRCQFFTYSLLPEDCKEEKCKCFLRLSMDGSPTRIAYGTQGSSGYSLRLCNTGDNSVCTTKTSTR
# assay: Inhibition of activated plasma kallikrein, fluorogenic peptide substrate (PFR-AMC) assay, 500 pM enzyme format
# measurementContext: 500 pM activated kallikrein, 300 uM PFR-AMC, 30 min preincubation, 10 min reaction, room temperature; read-out: Primary Dose Response Assay: Average EC50
experimentalReadout: EC50

- molecule: "COc1cc([C@H]2C[C@@H]2c2nccc(C)n2)nc2cc(N3C[C@@H](O)C[C@@H]3c3cn4cc(C5CC5)cc(N5CC(=O)N(C)C5=O)c4n3)ccc12 (relative stereo) [Example 67]"
  endpointResult: "1 to 10 nM"

Data request: Would you mind telling me what EC50 value was observed for Cc1ccnc([C@H]2C[C@@H]2c2nc3cc(NCc4cn5cc(C6CC6)cc(N6CC(=O)N(C)C6=O)c5n4)cnc3c(=O)[nH]2)n1 (racemic) [Example 9] ?
Data returned: ≤ 1 nM

Data request: What measured EC50 goes with Cc1ccnc([C@H]2C[C@@H]2c2cc(OC3COC3)c3ccc(NCc4cn5cc(C6CC6)cc(N6CC(=O)N(C)C6=O)c5n4)cc3n2)n1 (racemic) [Example 33] ?
Data returned: ≤ 1 nM

Data request: Could you share which EC50 value was measured for O[C@H]1C[C@H](c2cn3cc(C4CC4)ccc3n2)N(c2cc3[nH]c([C@H]4C[C@@H]4c4cccc(Cl)c4)c(F)c3cn2)C1 (relative stereo) [Example 56] ?
Data returned: > 6500 nM

Data request: Entry Cc1ccnc([C@H]2C[C@@H]2c2cc(N3CC4(COC4)C3)c3ccc(N[C@H](C)c4cn5cc(C6CC6)cc(N6CC(=O)N(C)C6=O)c5n4)cc3n2)n1 [Example 101] has what EC50?
Data returned: ≤ 1 nM

Data request: # get_value(readout='EC50', item= Cc1ccnc([C@H]2C[C@@H]2C2=NS(=O)(=O)c3ccc(OCc4cn5cc(C6CC6)ccc5n4)cc3N2)n1 (racemic) [Example 92] )
Data returned: ≤ 1 nM
